I'd appreciate it if you could supply ALT values for the items below.
- Species on record: Rattus norvegicus
- Experiment: Open TG-GATES - Regimen: Single
- Type: toxicity, organism-based, Sprague-Dawley
- Set-up: regimen Single, gender Male, age 6 weeks
- Experimental Parameters: in vivo, po, 0 mg/kg, 9 h, tissue Plasma, route gavage, dose level Control

Molecule	Property Name	Value
C[C@H]1O[C@H](O[C@H]2[C@H](O)[C@@H](O)[C@@H](O[C@H]3[C@H](O)[C@@H](O)C(O)O[C@@H]3CO)O[C@@H]2CO)[C@H](O)[C@@H](O)[C@@H]1N[C@H]1C=C(CO)[C@@H](O)[C@H](O)[C@H]1O (some centres undefined) [ACARBOSE]	ALT	35.2 IU/L
C=C(C)[C@H]1Cc2c(ccc3c2O[C@@H]2COc4cc(OC)c(OC)cc4[C@@H]2C3=O)O1 [ROTENONE]	ALT	33.6 IU/L
Cc1ccc2cc3c(ccc4ccccc43)c3c2c1CC3 [3-METHYLCHOLANTHRENE]	ALT	33.8 IU/L

Let's switch to this molecule now.
INPUT: Respond only with ALT recorded for CCOC(=O)C(C)(C)Oc1ccc(Cl)cc1 [CLOFIBRATE]
OUTPUT: 27 IU/L
